test: Kinetic solubility of the compound in JP2 fluid at pH 6.8 by precipitation method; format: physicochemical; settings: read-out: Kinetic_solubility
Values of solubility kinetic greater than or equal to 20 µg/mL map to rule met; values below map to rule not met.

• COc1ccccc1-c1cccc2c1CN(c1ccccc1)C2=O = rule not met
• COc1ccccc1-n1ncc2c1CN(c1ccccc1)C2=O = rule met
• COc1ccccc1-c1cncc2c1CN(c1ccccc1)C2=O = rule not met
• COc1ccccc1-c1nccc2c1CN(c1ccccc1)C2=O = rule not met
• O=C1c2ccnc(-c3ccc(F)cc3OC(F)(F)F)c2CN1c1ccc(F)cc1 = rule not met
• COc1ccccc1-c1ccnc2c1CN(c1ccccc1)C2=O = rule not met
• CC(C)(O)c1ccc(N2Cc3c(ccnc3-c3ccc(F)cc3OCC(F)(F)F)C2=O)cc1 = rule not met
• CC(C)(O)c1ccc(NC(=O)c2ccnn(-c3ccccc3OCC(F)(F)F)c2=O)cc1 = rule met
